The values you see were collected from the supplement of paper PMC9732359.

EXPERIMENT_SUMMARY: protein stability index of a GFP-peptide fusion (yeast GPS) (PSI 1-4); higher = more stable; sorted into four equal gates, so the index is relative within each strain
CONDITION_CONTEXT: ubr1∆
PROPERTY_NAME: protein stability index

| MACROMOLECULE_SEQUENCE | PROPERTY_NAME | OBSERVED_RESULT |
| --- | --- | --- |
| QAQAQAQANNNNNGLPQ [GAL11] | protein stability index | 3.05 |
| GPVVAGINSKSGKPFIA [PUP3] | protein stability index | 3.05 |
| IELNFDAVKDFKLGKFN [QCR2] | protein stability index | 3.71 |
| RSISEPSINLDPDNTSF [ESC2] | protein stability index | 3.17 |
| PKLKRIGLVKCTQMTDE [GRR1] | protein stability index | 2.86 |
| LLSQFGIKVLPETCLFV [YML103C/NUP188] | protein stability index | 1.33 |
| MGMDLYKTSKAAQDVWN [FAS1] | protein stability index | 3.43 |
| ASAPLCSPKLPVEKVQR [DLS1] | protein stability index | 3.03 |
| DLKAQFQELDSKKQRNN [RPN9] | protein stability index | 3.33 |

---

EXPERIMENT_SUMMARY: protein stability index of a GFP-peptide fusion (yeast GPS) (PSI 1-4); higher = more stable; sorted into four equal gates, so the index is relative within each strain
CONDITION_CONTEXT: ubr1∆
protein stability index listing for selected sequences.

| MACROMOLECULE_SEQUENCE | protein stability index |
| --- | --- |
| ADVLAMAKVEVNLAAIP [RIP1] | 2.05 |
| SKQVTDYYQSIYAKYGA [FAS2] | 2.77 |
| WLKEYEDETLRRIKEAE [YIL149C/MLP2] | 3.44 |
| IRIYDLGKKKATVDEFP [RPL10] | 1.29 |
| QKKIQINKEMGELNSKL [SMC3] | 3.15 |
| RAPKANGALDPKMGVSS [RPO31] | 3.04 |
| SDNVYLKLLVKLYTFLA [RPL18A] | 2.43 |
| IVLGVKDLQENLLVLRG [RPO21] | 1.5 |
| GIIEPSLKALASKYNCD [RPL40A] | 3.19 |
| LNEAQGHIVSLELTTGA [SMD3] | 1.85 |
| SSSMDMQANTNALRRNL [SSN3] | 2.28 |
| LGVASFHGTSTKANDKN [FAS2] | 3.02 |
| HLKHENANDETTAVEDE [RPB4] | 3.17 |
| AQLAKAKTELNEVSLAI [SMC2] | 2.61 |
| VSNLMGRNIGHPIIQDK [RPB3] | 3.22 |
| EQQLFEIFAFGNIKDLP [CSN9] | 2.86 |
| PSANNSSSIKSTGPTGA [RRP4] | 3.35 |
| GYRSRTRYMFQRDFRKH [RPL21A] | 3.3 |
| PCVEDGFVIQDRETALD [RPB2] | 3.2 |
| LDERFASRVALNKEKLG [IRR1] | 1.55 |
| VKEEKEDMETQASDPSK [RPC53] | 3.31 |
| SRMFEEVSGSIQYKKEY [SMC1] | 3.21 |
| QNQGGAQAPFDIDDLAF [ROX3] | 3.37 |
| ESDETTTDNNNSGNSNS [RPT1] | 3.13 |
| RRKTTKQNSSSDINQND [YDL088C/ASM4] | 2.95 |
| IKELRSKGYPIQFLTIG [FAS1] | 1.68 |
| VQDCRYSLASVTLKGAK [POP1] | 2.56 |
| NATVVDSFKYEPLAPGN [YLR335W/NUP2] | 2.94 |
| AAKPDNLANFSNEVAMN [SWP82] | 3.23 |
| LLSLISTTAALQSISSL [RPN7] | 2.24 |
| MEERDGAKFENIVHNFK [AAR2] | 1.88 |
| FPVSLSQPSKKSFANHT [SIR4] | 3 |
| ITSIPKPLTENCKKKKK [RMP1] | 2.99 |
